test: Cytotoxic activity against human HepG2 cells assessed as cell viability at 10 ug/ml incubated for 24 hrs by MTT assay
Assay type: cell-based
conditions used: read-out: Activity
I'd be grateful if you could share measured viability at 24 h, 10 ug/ml for these entries.
Quote the value and follow it with the unit of measurement.

Worked examples follow.
*Q* Specify viability at 24 h, 10 ug/ml for `O=S(=O)(Nc1ccccn1)c1ccc(Nc2ccnc3cc(Cl)ccc23)cc1` and stop.
*A* 86%

*Q* Kindly indicate its recorded viability at 24 h, 10 ug/ml. Item: `NS(=O)(=O)c1ccc(Nc2ccnc3cc(Cl)ccc23)cc1`
*A* 85%

*Q* Return the recorded viability at 24 h, 10 ug/ml value; entry: `O=S(=O)(Nc1ncccn1)c1ccc(Nc2ccnc3cc(Cl)ccc23)cc1`
*A* 89%

Now for the compound whose viability at 24 h, 10 ug/ml we want.
*Q* Report viability at 24 h, 10 ug/ml, nothing else, for this compound: CCN(CC)CCCC(C)Nc1ccnc2cc(Cl)ccc12 (centres undefined)
*A* 92%
